- protocol-description: Caffeine solubility with co-solutes during refrigerated storage (Example 61)
- Type: physicochemical
- Parameters: key: (PPT)—precipitate observed; (—)—clear solution observed
- condition-set: caffeine 7.5 mg/mL, 50 mM co-solute, 25 mM histidine pH 6, stored 2 to 5° C., Day 1
observation-type: Day 1 (visual observation for precipitate)

[[record]]
molecule = "O=C([O-])c1ccccc1.[Na+] [Sodium benzoate]"
value_reported = "—"

[[record]]
molecule = "NC(=O)c1cccnc1 [Nicotinamide]"
value_reported = "—"

[[record]]
molecule = "CN1CCCC1=O [N-Methyl-2-pyrrolidone]"
value_reported = "—"

[[record]]
molecule = "N[C@@H](Cc1ccccc1)C(=O)O [Phenylalanine]"
value_reported = "—"

[[record]]
molecule = "OCc1ccccc1 [Benzyl alcohol]"
value_reported = "—"


---

- protocol-description: Caffeine solubility with co-solutes during refrigerated storage (Example 61)
- Assay type: physicochemical
- Design: key: (PPT)—precipitate observed; (—)—clear solution observed
- condition-set: caffeine 15 mg/mL, 50 mM co-solute, 25 mM histidine pH 6, stored 2 to 5° C., Day 18
observation-type: Day 18 (visual observation for precipitate)

[[record]]
molecule = "CN1CCCC1=O"
value_reported = "PPT"

[[record]]
molecule = "O=C([O-])c1ccccc1.[Na+] [Sodium benzoate]"
value_reported = "—"

[[record]]
molecule = "NC(=O)c1cccnc1 [Nicotinamide]"
value_reported = "—"

[[record]]
molecule = "OCc1ccccc1"
value_reported = "—"

[[record]]
molecule = "N[C@@H](Cc1ccccc1)C(=O)O"
value_reported = "—"


---

- System: proteins described in Table 50
- protocol-description: DLS diffusion interaction parameter kD (Example 49)
- Format: physicochemical
- condition-set: ustekinumab; excipient stock concentration 200 mM, mixed 1:1 with protein solution; 20 mM His HCl pH 6; 25° C.
Where a name gives a salt, the structure may show the parent alone.
# label = 1 if Ustekinumab kD < 20 mL/g else -1

[[record]]
compound = "O=c1cc(CO)occ1O"
label_class = -1

[[record]]
compound = "Cc1ncc(CO)c(CO)c1O.Cl [pyridoxine HCl]"
label_class = 1

[[record]]
compound = "Nn1nnc2ccccc21"
label_class = -1

[[record]]
compound = "CN(C)CCN(C)C.Cl [Tetramethylethylenediamine HCl]"
label_class = 1

[[record]]
compound = "NC(=O)CN1CCCC1=O"
label_class = -1

[[record]]
compound = "O=C(O)C1=CCNCC1 [Isoguvacine HCl]"
label_class = 1

[[record]]
compound = "Nc1ccc(C(=O)O)cc1"
label_class = 1

[[record]]
compound = "COc1cc(C=CC(=O)O)ccc1O [4-hydroxy-3-methoxycinnamic acid]"
label_class = -1

[[record]]
compound = "Cn1cnc(CC(=O)O)c1"
label_class = -1

[[record]]
compound = "O.O.O.O.O.O.O.O.O.O.[Na+].[Na+].[O-]B1OB2OB([O-])OB(O1)O2 [Sodium borate]"
label_class = 1

[[record]]
compound = "O=S(=O)([O-])CCC[n+]1ccccc1 [3-(1-Pyridinio)-1-propanesulfonate]"
label_class = -1

[[record]]
compound = "Cc1ncc[nH]1"
label_class = 1

[[record]]
compound = "COc1cc(CC(=O)O)ccc1O"
label_class = 1

[[record]]
compound = "C1COCCOCCOCCOCCO1"
label_class = -1

[[record]]
compound = "N[C@@H]1CON=C1O"
label_class = 1

